Tested on: Colon 38 (murine colon adenocarcinoma)
test-summary: Disk diffusion assay, zone of inhibition, Colon 38; zone differentials, potency and product
Assay type: cell-based
measurement-setup: C38ΔL1210 plus C38ΔCFU
property-label: Sum
# print the numeric value only

>>> readout_number("C=CCOC(=O)OC1C(=O)OC2CC3C(C)=C(O)C(=O)CC3(C)C3C(O)C(OC(=O)OCC=C)C4(C(=O)OC)OCC23C14 (stereo not shown)")
650
>>> readout_number("COC(=O)C12OCC34C(CC5C(C)=C(O)C(=O)CC5(C)C3C(O)C1O)OC(=O)C(OC(=O)Cc1ccccc1)C24 (stereo not shown) [15-O-phenylacetyl bruceolide]")
1000

Challenge: Form field: reported Sum of COC(=O)C12OCC34C(CC5C(C)=C(O)C(=O)CC5(C)C3C(O)C1O)OC(=O)C(OC(=O)C1=CCCC1)C24 (stereo not shown) [15-O-(1′-cyclopentenoyl)-bruceolide]
Response given: 750

Challenge: Form field: reported Sum of CCCCCC(=O)OC1C(=O)OC2CC3C(C)=C(O)C(=O)CC3(C)C3C(O)C(O)C4(C(=O)OC)OCC23C14 (stereo not shown) [15-O-hexanoylbruceolide]
Response given: 600

Challenge: Form field: reported Sum of COC(=O)C12OCC34C(CC5C(C)=C(O)C(=O)CC5(C)C3C(O)C1O)OC(=O)C(OC(=O)CC1(O)CCCCC1)C24 (stereo not shown)
Response given: 750

Challenge: Form field: reported Sum of C=CCOC(=O)O[C@H]1C(=O)O[C@@H]2C[C@H]3C(C)=C(O)C(=O)C[C@]3(C)[C@H]3[C@@H](O)[C@H](O)[C@@]4(C(=O)OC)OC[C@]32[C@@H]14 [15-O-(allyloxycarbonyl)-bruceolide]
Response given: 1050

Challenge: Form field: reported Sum of COC(=O)[C@@]12OC[C@]34[C@H]([C@@H](O)[C@@H]1O)[C@@]1(C)CC(=O)C(O)=C(C)[C@@H]1C[C@H]3OC(=O)[C@H](OC(=O)C=C1CCCCC1)[C@@H]24 [15-O-(cyclohexylideneacetyl)-bruceolide]
Response given: 700
